assay: Pharmacokinetics after oral and IV administration; type: in vivo; conditions: plasma; Rat; IV Dose 1 mg/kg, PO Dose 3 mg/kg
attribute measured: Tmax (h)
The response must be a number in h with no trailing unit.

### Prompt Reported Tmax for Cc1cc(C)c(-c2ccc(NC(=O)[C@H](Cc3ccc(C(=O)NCCS(=O)(=O)O)cc3)c3ccc(-c4ccc(C(C)(C)C)cc4)cc3)cc2)c(C)c1 : what is it?
### Response 2

====

test: Single ascending dose study, pharmacokinetics; type: in vivo, human; conditions: human, plasma, po, 40 mg, Normal healthy volunteer, 40 mg oral, Fed
attribute measured: Cmax (ng/mL)
Unit ng/mL implied. Number only.

### Prompt Bench note: what Cmax did Cc1cc(C)c(-c2ccc(NC(=O)[C@H](Cc3ccc(C(=O)NCCS(=O)(=O)O)cc3)c3ccc(-c4ccc(C(C)(C)C)cc4)cc3)cc2)c(C)c1 [IIIa] show?
### Response 779

====

assay: Solubility in water, buffers, simulated fluids and Captisol; assay type: physicochemical; settings: aqueous with cosolvent or surfactant or cyclodextrin, thermodynamic from solid; 35% w/v Captisol, ambient conditions, UV after 2-3day equilibration
Structures can show the parent of a compound that is named as a salt.
attribute measured: solubility

### Prompt Fill blank: measured solubility of the compound Cc1cc(C)c(C2C=CC(NC(=O)[C@H](Cc3ccc(C(=O)NCCS(=O)(=O)O)cc3)c3ccc(-c4ccc(C(C)(C)C)cc4)cc3)=CC2)c(C)c1 (stereo partly shown) [Formula IIIa sodium salt] is ____.
### Response 32.9 mg/mL

====

experiment: Solubility in water, buffers, simulated fluids and Captisol; format: physicochemical; settings: aqueous with cosolvent or surfactant or cyclodextrin, thermodynamic from solid; 15% w/v Captisol, ambient conditions, UV after 2-3day equilibration
Counter-ions that a name gives are not always drawn.
attribute measured: solubility (mg/mL)
Dear colleague, please return just the value in mg/mL, with no unit written.

### Prompt What value of solubility has been reported for the following compound? Cc1cc(C)c(C2C=CC(NC(=O)[C@H](Cc3ccc(C(=O)NCCS(=O)(=O)O)cc3)c3ccc(-c4ccc(C(C)(C)C)cc4)cc3)=CC2)c(C)c1 (stereo partly shown) [Formula IIIa sodium salt]
### Response 11.5

====

test: Solubility in water, buffers, simulated fluids and Captisol; type: physicochemical; details: simulated gastric fluid, thermodynamic from solid; 0.1N HCL, 25° C., HPLC after 24-hour equilibration
Counter-ions that a name gives are not always drawn.
attribute measured: solubility at 24 h (µg/mL)
Could you give me the number in µg/mL? Just the number is fine.

### Prompt Param item = Cc1cc(C)c(C2C=CC(NC(=O)[C@H](Cc3ccc(C(=O)NCCS(=O)(=O)O)cc3)c3ccc(-c4ccc(C(C)(C)C)cc4)cc3)=CC2)c(C)c1 (stereo partly shown) [Formula IIIa sodium salt] ; retrieve measured solubility at 24 h.
### Response 60

====

assay: Pharmacokinetics after oral and IV administration; type: in vivo; settings: plasma; Monkey; IV Dose 1 mg/kg, PO Dose 3 mg/kg
attribute measured: Tmax (h)
Answer with a number only, understood to be in h.

### Prompt Looking for the measured Tmax of Cc1cc(C)c(-c2ccc(NC(=O)[C@H](Cc3ccc(C(=O)NCCS(=O)(=O)O)cc3)c3ccc(-c4ccc(C(C)(C)C)cc4)cc3)cc2)c(C)c1 [IIIa] , can you help?
### Response 4
